assayedTarget: HDAC6 (Homo sapiens, UniProt Q9UBN7)
Sequence (Q9UBN7 1-1215): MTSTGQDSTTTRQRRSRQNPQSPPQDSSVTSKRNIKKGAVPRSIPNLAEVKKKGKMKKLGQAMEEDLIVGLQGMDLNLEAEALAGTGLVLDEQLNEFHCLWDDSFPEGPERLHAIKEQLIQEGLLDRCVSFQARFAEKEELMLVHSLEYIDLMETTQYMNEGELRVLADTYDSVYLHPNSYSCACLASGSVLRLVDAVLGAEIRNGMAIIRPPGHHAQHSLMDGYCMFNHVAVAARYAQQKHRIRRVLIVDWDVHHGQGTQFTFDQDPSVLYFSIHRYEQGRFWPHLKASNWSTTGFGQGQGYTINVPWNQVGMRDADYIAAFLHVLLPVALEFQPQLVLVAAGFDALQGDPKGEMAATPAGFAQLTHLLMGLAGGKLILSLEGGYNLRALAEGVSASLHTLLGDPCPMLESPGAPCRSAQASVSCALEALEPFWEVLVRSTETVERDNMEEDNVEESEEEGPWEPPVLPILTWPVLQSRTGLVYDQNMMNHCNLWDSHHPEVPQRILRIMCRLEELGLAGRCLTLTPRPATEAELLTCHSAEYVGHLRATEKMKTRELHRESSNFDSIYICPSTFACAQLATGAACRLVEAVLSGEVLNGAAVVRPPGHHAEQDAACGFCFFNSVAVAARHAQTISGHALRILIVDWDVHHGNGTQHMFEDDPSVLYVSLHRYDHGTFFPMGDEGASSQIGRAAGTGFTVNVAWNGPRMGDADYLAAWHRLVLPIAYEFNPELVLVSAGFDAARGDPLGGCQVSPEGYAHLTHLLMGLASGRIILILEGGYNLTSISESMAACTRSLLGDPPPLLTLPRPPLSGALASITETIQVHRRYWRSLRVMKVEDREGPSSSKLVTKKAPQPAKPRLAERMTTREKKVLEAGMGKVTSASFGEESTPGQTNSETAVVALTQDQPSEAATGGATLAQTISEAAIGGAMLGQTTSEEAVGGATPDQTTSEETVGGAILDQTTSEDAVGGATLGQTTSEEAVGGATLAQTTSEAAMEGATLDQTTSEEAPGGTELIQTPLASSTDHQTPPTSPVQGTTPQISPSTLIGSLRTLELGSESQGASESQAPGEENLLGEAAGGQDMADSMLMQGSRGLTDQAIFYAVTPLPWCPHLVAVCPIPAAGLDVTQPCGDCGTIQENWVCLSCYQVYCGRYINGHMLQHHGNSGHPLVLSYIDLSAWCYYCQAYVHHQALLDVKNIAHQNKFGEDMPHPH
experimentDescription: Fluorogenic HDAC inhibition assay, purified enzyme
testParameters: read-out: HDAC6 IC50; purified enzyme in vitro
quantityName: IC50
In your response, the unit should come after the numeric value.

What value of IC50 has been reported for the following compound? CCC(CC)(c1ccc(OCC(=O)NO)c(C)c1)c1ccc(OCC(=O)NO)c(C)c1
4.7 µM

----------
assayedTarget: HDAC6 (Homo sapiens, UniProt Q9UBN7)
experimentDescription: Fluorogenic HDAC inhibition assay, purified enzyme
So basically, if IC50 comes in under 3 µM it's rule met, and if it's 3 µM or more it's rule not met.

The examples below pair each entry with its known result.
>>> labelvalue("CCC(CC)(c1ccc(OCC(O)CCC(=O)NO)c(C)c1)c1ccc(OCC(O)C(C)(C)C)c(C)c1 (stereo not shown)")
"rule not met"
>>> labelvalue("CCC(CC)(c1ccc(OCC(=O)NO)c(C)c1)c1ccc(OC[C@H](O)C(C)(C)C)c(C)c1")
"rule not met"
>>> labelvalue("CCC(CC)(c1ccc(OCC(=O)NO)c(C)c1)c1ccc(OCC(CO)CO)c(C)c1")
"rule not met"
>>> labelvalue("CCC(CC)(c1ccc(OCC(=O)NO)c(C)c1)c1ccc(OCC(C)(C)O)c(C)c1")
"rule not met"
>>> labelvalue("CCC(CC)(c1ccc(OCCCCC(=O)NO)cc1)c1ccc(OCCC(C)(C)C)c(C)c1")
"rule met"
>>> labelvalue("CCC(CC)(c1ccc(OCC(O)C(C)(C)C)c(C)c1)c1cc(C)c(CCC(=O)NO)s1 (stereo not shown)")
"rule not met"
>>> labelvalue("CCC(CC)(c1ccc(OCCCCCC(=O)NO)c(C)c1)c1ccc(OCC(O)C(C)(C)C)c(C)c1 (stereo not shown)")
"rule met"
>>> labelvalue("CCC(CC)(c1ccc(OCCCCCCC(=O)NO)c(C)c1)c1ccc(OCC(O)C(C)(C)C)c(C)c1 (stereo not shown)")
"rule not met"

Now examine the next entry.
Regarding CCC(O)(CC)COc1ccc(C(CC)(CC)c2ccc(OCC(=O)NO)c(C)c2)cc1C , kindly confirm whether its IC50 is beneath 3 µM.
rule not met
